Target Or Test System: human orexin 2 receptor (Homo sapiens, UniProt O43614)
Construct: stably expressing the full-length human orexin 2 receptor; expressed in transfected cells; host or cells: CHO-K1 (CHO-K1/hOx2), co-expressing the aequorin photoprotein
Sequence (O43614 whole entry): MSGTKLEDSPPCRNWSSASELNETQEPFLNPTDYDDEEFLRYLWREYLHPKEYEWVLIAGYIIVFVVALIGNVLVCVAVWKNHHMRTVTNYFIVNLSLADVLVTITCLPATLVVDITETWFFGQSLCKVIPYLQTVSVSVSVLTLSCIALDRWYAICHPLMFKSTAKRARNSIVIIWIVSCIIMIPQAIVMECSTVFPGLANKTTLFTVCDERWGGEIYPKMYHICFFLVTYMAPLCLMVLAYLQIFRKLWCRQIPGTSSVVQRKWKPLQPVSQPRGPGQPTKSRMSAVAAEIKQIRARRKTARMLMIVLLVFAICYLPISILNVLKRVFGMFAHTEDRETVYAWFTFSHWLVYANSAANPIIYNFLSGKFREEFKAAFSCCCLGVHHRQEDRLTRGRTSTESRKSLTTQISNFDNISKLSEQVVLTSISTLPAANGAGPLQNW
Assay Procedure: Assay B: OX2R IP1 (in vitro OX2R potency)
Assay type: cell-based
Details: Table 3; 0.5 nM Orexin A
Endpoint Name: Kb (nM)

| Cpd Smiles | Reported Measurement |
| --- | --- |
| CCN(C(=O)c1ccc(F)c(F)c1-n1nccn1)[C@@H](C)COc1ncc(C(F)(F)F)cn1 | 455 |
| CCN(C(=O)c1ccccc1-c1ncccn1)[C@@H](C)COc1ncc(C(F)(F)F)cn1 | 176 |
| CCN(C(=O)c1cc(C)ccc1-n1nccn1)[C@@H](C)COc1ncc(C(F)(F)F)cn1 | 156 |
| CCN(C(=O)c1ccc(C)cc1-n1nccn1)[C@@H](C)COc1ncc(C(F)(F)F)cn1 | 142 |
| CCN(C(=O)c1ccc(C)c(C)c1-n1nccn1)[C@@H](C)COc1ncc(C(F)(F)F)cn1 | 565 |
| CCN(C(=O)c1cccc(F)c1-n1nccn1)[C@@H](C)COc1ncc(C(F)(F)F)cn1 | 425 |
| CCN(C(=O)c1cc(OC)ccc1-n1nccn1)[C@@H](C)COc1ncc(C(F)(F)F)cn1 | 253 |
| CCN(C(=O)c1ccccc1-c1cnc(C)o1)[C@@H](C)COc1ncc(C(F)(F)F)cn1 | 746 |
| CCN(C(=O)c1cc(C)ccc1-n1cccn1)[C@@H](C)COc1ncc(C(F)(F)F)cn1 | 502 |
| CCN(C(=O)c1ccc(F)cc1-c1ncccn1)[C@@H](C)COc1ncc(C(F)(F)F)cn1 | 272 |
| CCN(C(=O)c1cc(C)c(C)cc1-n1nccn1)[C@@H](C)COc1ncc(C(F)(F)F)cn1 | 34 |
| CCN(C(=O)c1ccc(OC)cc1-n1nccn1)[C@@H](C)COc1ncc(C(F)(F)F)cn1 | 579 |
| CCN(C(=O)c1ccccc1-c1nc(C)no1)[C@@H](C)COc1ncc(C(F)(F)F)cn1 | 999 |
| CCN(C(=O)c1cc(F)ccc1-n1nccn1)[C@@H](C)COc1ncc(C(F)(F)F)cn1 | 803 |
| CCN(C(=O)c1cccc(F)c1-c1ncccn1)[C@@H](C)COc1ncc(C(F)(F)F)cn1 | 188 |
| CCN(C(=O)c1c(-n2nccn2)ccc(C)c1F)[C@@H](C)COc1ncc(C(F)(F)F)cn1 | 431 |
| CCN(C(=O)c1ccccc1-c1noc(C)n1)[C@@H](C)COc1ncc(C(F)(F)F)cn1 | 435 |
| CCN(C(=O)c1ccc(C)cc1-c1nnc(C)o1)[C@@H](C)COc1ncc(C(F)(F)F)cn1 | 6640 |
| CCN(C(=O)c1ccccc1-c1ncco1)[C@@H](C)COc1ncc(C(F)(F)F)cn1 | 511 |
| CCN(C(=O)c1ccccc1-n1nccn1)[C@@H](C)COc1ncc(C(F)(F)F)cn1 | 237 |
| CCN(C(=O)c1cccc(C)c1-n1nccn1)[C@@H](C)COc1ncc(C(F)(F)F)cn1 | 160 |
| CCN(C(=O)c1cc(F)cc(F)c1-n1nccn1)[C@@H](C)COc1ncc(C(F)(F)F)cn1 | 1460 |
| CCN(C(=O)c1cccc(C)c1-c1nnc(C)o1)[C@@H](C)COc1ncc(C(F)(F)F)cn1 | 540 |
| CCN(C(=O)c1ccc(F)cc1-n1nccn1)[C@@H](C)COc1ncc(C(F)(F)F)cn1 | 902 |
| CCN(C(=O)c1cccc(F)c1-n1nccn1)[C@@H](C)COc1ncc(Br)cn1 | 350 |
| CCN(C(=O)c1cccc(F)c1-c1nnc(C)o1)[C@@H](C)COc1ncc(C(F)(F)F)cn1 | 6640 |
